- System: SK-MEL-5
- assay-details: Cytotoxicity against human SK-MEL-5 cells assessed as cell growth at 10 uM
- Assay type: functional
- experimental-context: read-out: Activity
Mark True only for growth at 10 µM values smaller than 50%; exact matches and larger values are False.

>  <mol-smiles>
COc1cc(C)cc(-c2nn(CC#N)cc2-c2ccnc(-c3ccc(N(C)C)cc3)c2)c1

>  <assigned-label>
True

$$$$
>  <mol-smiles>
COc1cc(C)cc(-c2nn(CC#N)cc2-c2ccnc(-c3ccc(C#N)cc3)c2)c1

>  <assigned-label>
False

$$$$
>  <mol-smiles>
COc1cc(C)cc(-c2nn(CC#N)cc2-c2ccnc(-c3cccc(NC(C)=O)c3)c2)c1

>  <assigned-label>
True

$$$$
>  <mol-smiles>
COc1cc(C)cc(-c2nn(CC#N)cc2-c2ccnc(-c3ccc(Oc4ccccc4)cc3)c2)c1

>  <assigned-label>
False

$$$$
>  <mol-smiles>
Cc1cc(O)cc(-c2nn(CC#N)cc2-c2ccnc(-c3ccc(Oc4ccccc4)cc3)c2)c1

>  <assigned-label>
False

$$$$
>  <mol-smiles>
COc1cc(C)cc(-c2c(-c3ccnc(-c4ccc(N(C)C)cc4)c3)cnn2CC#N)c1

>  <assigned-label>
True

$$$$
>  <mol-smiles>
Cc1cc(O)cc(-c2nn(CC#N)cc2-c2ccnc(-c3ccccc3)c2)c1

>  <assigned-label>
False

$$$$
>  <mol-smiles>
COc1cc(C)cc(-c2nn(CC#N)cc2-c2ccc(-c3cccc(C(C)=O)c3)nc2)c1

>  <assigned-label>
True

$$$$

###

- System: K562
- assay-details: Growth inhibition of human K562 cells after 48 hrs by sulforhodamine B assay
- Type: functional
- experimental-context: K562, 48 h
Here the recorded GI50 is given for each entry.
experimental-endpoint: GI50

>  <mol-smiles>
COc1cc(C)cc(-c2nn(CC#N)cc2-c2ccc(-c3cccc(C(C)=O)c3)nc2)c1

>  <measured-on>
K562

>  <reported-value>
365 nM

$$$$
>  <mol-smiles>
Cc1cc(O)cc(-c2nn(CC#N)cc2-c2ccnc(-c3ccc(N(C)C)cc3)c2)c1

>  <measured-on>
K562

>  <reported-value>
2550 nM

$$$$
>  <mol-smiles>
COc1cc(C)cc(-c2c(-c3ccnc(-c4ccc(C(C)=O)cc4)c3)cnn2CC#N)c1

>  <measured-on>
K562

>  <reported-value>
795 nM

$$$$
>  <mol-smiles>
COc1cc(C)cc(-c2c(-c3ccnc(-c4ccc(N(C)C)cc4)c3)cnn2CC#N)c1

>  <measured-on>
K562

>  <reported-value>
58.4 nM

$$$$
>  <mol-smiles>
Cc1cc(O)cc(-c2nn(CC#N)cc2-c2ccnc(-c3ccc(Oc4ccccc4)cc3)c2)c1

>  <measured-on>
K562

>  <reported-value>
4870 nM

$$$$
>  <mol-smiles>
COc1cc(C)cc(-c2nn(CC#N)cc2-c2ccnc(-c3ccc(N(C)C)cc3)c2)c1

>  <measured-on>
K562

>  <reported-value>
161 nM

$$$$

###

# CC50 per record follows
- System: BT-549
- assay-details: Growth inhibition of human BT549 cells after 48 hrs by sulforhodamine B assay
- Type: functional
- experimental-context: BT-549, 48 h, read-out: LC50 (the source's name)
experimental-endpoint: CC50

>  <mol-smiles>
Cc1cc(O)cc(-c2nn(CC#N)cc2-c2ccnc(-c3ccc(Oc4ccccc4)cc3)c2)c1

>  <measured-on>
BT-549

>  <experimental-endpoint>
CC50

>  <reported-value>
43.1 µM

$$$$
>  <mol-smiles>
COc1cc(C)cc(-c2nn(CC#N)cc2-c2ccnc(-c3ccc(N(C)C)cc3)c2)c1

>  <measured-on>
BT-549

>  <experimental-endpoint>
CC50

>  <reported-value>
> 100 µM

$$$$
>  <mol-smiles>
COc1cc(C)cc(-c2c(-c3ccnc(-c4ccc(N(C)C)cc4)c3)cnn2CC#N)c1

>  <measured-on>
BT-549

>  <experimental-endpoint>
CC50

>  <reported-value>
> 100 µM

$$$$
>  <mol-smiles>
Cc1cc(O)cc(-c2nn(CC#N)cc2-c2ccnc(-c3ccc(N(C)C)cc3)c2)c1

>  <measured-on>
BT-549

>  <experimental-endpoint>
CC50

>  <reported-value>
> 100 µM

$$$$
>  <mol-smiles>
COc1cc(C)cc(-c2nn(CC#N)cc2-c2ccc(-c3cccc(C(C)=O)c3)nc2)c1

>  <measured-on>
BT-549

>  <experimental-endpoint>
CC50

>  <reported-value>
> 100 µM

$$$$
>  <mol-smiles>
COc1cc(C)cc(-c2c(-c3ccnc(-c4ccc(C(C)=O)cc4)c3)cnn2CC#N)c1

>  <measured-on>
BT-549

>  <experimental-endpoint>
CC50

>  <reported-value>
> 100 µM

$$$$
